experimentalSystem: T1, recombinant human IL-13 (human, UniProt P35225 35-146)
T1 construct: also called rh-IL-13; hIL-13
T1 sequence (P35225 35-146 limits assumed): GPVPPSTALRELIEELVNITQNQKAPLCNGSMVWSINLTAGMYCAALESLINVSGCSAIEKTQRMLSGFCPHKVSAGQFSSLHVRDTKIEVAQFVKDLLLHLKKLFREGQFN
method: SPR
Here, each record is paired with measured koff data.
Your answer should be a plain number; it is taken to be in s⁻¹.

Would you please look over these solved cases?
BDG38.075 (antibody, V domains shown, IgG1) VH: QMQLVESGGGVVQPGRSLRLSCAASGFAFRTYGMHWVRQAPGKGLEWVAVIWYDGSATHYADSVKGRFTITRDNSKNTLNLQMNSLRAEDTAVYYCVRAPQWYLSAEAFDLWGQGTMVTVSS VL: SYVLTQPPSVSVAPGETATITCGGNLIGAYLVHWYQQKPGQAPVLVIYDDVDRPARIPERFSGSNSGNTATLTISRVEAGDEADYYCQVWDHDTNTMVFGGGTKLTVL | 0.000547
BDG38.081 (antibody, V domains shown, IgG1) VH: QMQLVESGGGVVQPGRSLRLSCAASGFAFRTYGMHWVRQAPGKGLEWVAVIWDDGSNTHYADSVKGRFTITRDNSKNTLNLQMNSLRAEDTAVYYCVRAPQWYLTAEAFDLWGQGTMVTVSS VL: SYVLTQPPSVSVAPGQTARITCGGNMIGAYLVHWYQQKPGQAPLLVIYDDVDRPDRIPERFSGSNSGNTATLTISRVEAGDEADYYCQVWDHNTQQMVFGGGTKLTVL | 0.000872

Next, consider the following binder.
Fill blank: measured koff of the binder BDG38.078 (antibody, V domains shown, IgG1) VH: QMQLVESGGGVVQPGRSLRLSCAASGFEFRTYGMHWVRQAPGKGLEWLGVIWYDGSNTHYADSVKGRFTITRDNSKNTLNLQMNSLRVEDTAVYYCVRAPQWYLTAEAFDLWGQGTMVTVSS VL: SYILTQPPSVSVAPGETATITCGGNLIGARLVHWYQQKPGQAPVLVIYDDSDRPSRIPERFSGSNIGNTATLTIERVEAGDEADYYCQVWDYYSDHMVFGGGTKLTVL is ____.
0.000203
